Reported values of EC50, inhibition of mouse IL-1β-induced IL-6 secretion by MRC5 cells for individual entries
MEASURED_ON: mouse IL-1β (mouse, UniProt P10749 118-269)
ASSAY_INFO: cell-based or functional assay
Only the number, expressed in nM, is required.

BINDER	QUANTITATIVE_READOUT
P2D7 (antibody, V domains shown, claim 45 pairs 17 with 14); also called matured Ig P2D7) VH: QVQLQQWGAGLLKPSETLSLTCAVYGGSFSDYYWSWIRQPPGKGLEWIGEIDHSGSTNYNPSLKSRVTISVDTSRNQFSLSLSSVTAADTAVYYCARASPSSGWTLDYWGQGTLVTVSS VL: QSVLTQPPSVSVSPGQTASITCSGDKLGDKFAFWYQQKPGQSPVLVIYLDNKRPSGIPERFSGSNSGNTATLTISGTQALDEADYYCYAWADTYEVFGGGTK	0.158
P1E8 (antibody, V domains shown) VH: QVQLQQWGAGLLKPSETLSLTCAVYGGSFSDYYWSWIRQPPGKGLEWIGEIDHSGSTNYNPSLKSRVTISVDTSKNQFSLKLSSVTAADTAVYYCARASPSSGWTLDYWGQGTLVTVSS VL: QSVLTQPPSVSVSPGQTASITCSGDKLGDKFAFWYQQKPGQSPVLVIYLDNKRPSGIPERFSGSNSGNTATLTISGTQALDEADYYCEAWDAAAEVFGGGTKLTVLG	0.479

Now, please, on to the next binder.
[ask] Suppose we examine the binder P1H8 (antibody, V domains shown, also called matured Ig P1H8) VH: QVQLQQWGAGLLKPSETLSLTCAVYGGSFSDYYWSWIRQPPGKGLEWIGEIDHSGSTNYNPSLKSRVTISVDTSRNQFSLSLSSVTAADTAVYYCARASPSSGWTLDYWGQGTLVTVSS VL: QSVLTQPPSVSVSPGQTASITCSGDKLGDKFAFWYQQKPGQSPVLVIYLDNKRPSGIPERFSGSNSGNTATLTISGTQALDEADYYCQAWADSFEVFGGGTKLTVLG ; what EC50, inhibition of mouse IL-1β-induced IL-6 secretion by MRC5 cells value has been reported?
[reply] 0.623
